The values you see were collected from patent US5093231A.

- assay.explanation: Accelerated stability of levamisole (and its p-bromo analogue) in various buffers; functional amount measured by inhibition of bovine liver AP
- reported.conditions: carbonate buffer, pH 9.8
measurement.kind: remaining at 72 h, 100 µM
# output: number + unit

## Task Need remaining at 72 h, 100 µM, item Brc1ccc([C@H]2CN3CCSC3=N2)cc1
## Result 44.4%

====

- assay.explanation: Accelerated stability of levamisole (and its p-bromo analogue) in various buffers; functional amount measured by inhibition of bovine liver AP
- reported.conditions: diethanolamine buffer, pH 9.8
measurement.kind: remaining at 408 h, 100 µM (%)
Answer in %, number only, no unit symbol.

## Task Need remaining at 408 h, 100 µM, item Brc1ccc([C@H]2CN3CCSC3=N2)cc1
## Result 0.53

====

- assay.explanation: Accelerated stability of levamisole (and its p-bromo analogue) in various buffers; functional amount measured by inhibition of bovine liver AP
- reported.conditions: amp buffer, pH 9.8
measurement.kind: remaining at 72 h, 100 µM (%)
Answer in %, number only, no unit symbol.

## Task Need remaining at 72 h, 100 µM, item Brc1ccc([C@H]2CN3CCSC3=N2)cc1 [p-bromolevamisole]
## Result 55.4

====

- assay.explanation: Accelerated stability of levamisole (and its p-bromo analogue) in various buffers; functional amount measured by inhibition of bovine liver AP
- reported.conditions: triethanolamine buffer, pH 9.8
measurement.kind: remaining at 408 h, 100 µM
# output: number + unit

## Task Need remaining at 408 h, 100 µM, item Brc1ccc([C@H]2CN3CCSC3=N2)cc1 [p-bromolevamisole]
## Result 7.86%

====

- assay.explanation: Accelerated stability of levamisole (and its p-bromo analogue) in various buffers; functional amount measured by inhibition of bovine liver AP
- reported.conditions: ampd buffer, pH 9.8
measurement.kind: remaining at 408 h, 100 µM (%)
Answer in %, number only, no unit symbol.

## Task Need remaining at 408 h, 100 µM, item Brc1ccc([C@H]2CN3CCSC3=N2)cc1 [p-bromolevamisole]
## Result 18.5

====

- assay.explanation: Accelerated stability of levamisole (and its p-bromo analogue) in various buffers; functional amount measured by inhibition of bovine liver AP
- reported.conditions: carbonate buffer, pH 9.8
measurement.kind: remaining at 408 h, 1000 µM (%)
Answer in %, number only, no unit symbol.

## Task Need remaining at 408 h, 1000 µM, item c1ccc([C@H]2CN3CCSC3=N2)cc1 [levamisole]
## Result 13.7

====

- assay.explanation: Accelerated stability of levamisole (and its p-bromo analogue) in various buffers; functional amount measured by inhibition of bovine liver AP
- reported.conditions: glycine buffer, pH 9.8
measurement.kind: remaining at 216 h, 100 µM

## Task Need remaining at 216 h, 100 µM, item Brc1ccc([C@H]2CN3CCSC3=N2)cc1 [p-bromolevamisole]
## Result 0.25%

====

- assay.explanation: Accelerated stability of levamisole (and its p-bromo analogue) in various buffers; functional amount measured by inhibition of bovine liver AP
- reported.conditions: ampd buffer, pH 9.8
measurement.kind: remaining at 408 h, 1000 µM (%)
Answer in %, number only, no unit symbol.

## Task Need remaining at 408 h, 1000 µM, item c1ccc([C@H]2CN3CCSC3=N2)cc1
## Result 71.7

====

- assay.explanation: Accelerated stability of levamisole (and its p-bromo analogue) in various buffers; functional amount measured by inhibition of bovine liver AP
- reported.conditions: amp buffer, pH 9.8
measurement.kind: remaining at 216 h, 1000 µM (%)
Answer in %, number only, no unit symbol.

## Task Need remaining at 216 h, 1000 µM, item c1ccc([C@H]2CN3CCSC3=N2)cc1
## Result 107

====

- assay.explanation: Accelerated stability of levamisole (and its p-bromo analogue) in various buffers; functional amount measured by inhibition of bovine liver AP
- reported.conditions: ampd buffer, pH 9.8
measurement.kind: remaining at 216 h, 1000 µM (%)
Answer in %, number only, no unit symbol.

## Task Need remaining at 216 h, 1000 µM, item c1ccc([C@H]2CN3CCSC3=N2)cc1
## Result 90.2

====

- assay.explanation: Accelerated stability of levamisole (and its p-bromo analogue) in various buffers; functional amount measured by inhibition of bovine liver AP
- reported.conditions: amp buffer, pH 9.8
measurement.kind: remaining at 408 h, 1000 µM (%)
Answer in %, number only, no unit symbol.

## Task Need remaining at 408 h, 1000 µM, item c1ccc([C@H]2CN3CCSC3=N2)cc1
## Result 87.1

====

- assay.explanation: Accelerated stability of levamisole (and its p-bromo analogue) in various buffers; functional amount measured by inhibition of bovine liver AP
- reported.conditions: diethanolamine buffer, pH 9.8
measurement.kind: remaining at 408 h, 1000 µM
# output: number + unit

## Task Need remaining at 408 h, 1000 µM, item c1ccc([C@H]2CN3CCSC3=N2)cc1 [levamisole]
## Result 0.31%

====

- assay.explanation: Accelerated stability of levamisole (and its p-bromo analogue) in various buffers; functional amount measured by inhibition of bovine liver AP
- reported.conditions: glycine buffer, pH 9.8
measurement.kind: remaining at 72 h, 100 µM (%)
Answer in %, number only, no unit symbol.

## Task Need remaining at 72 h, 100 µM, item Brc1ccc([C@H]2CN3CCSC3=N2)cc1 [p-bromolevamisole]
## Result 0.29

====

- assay.explanation: Accelerated stability of levamisole (and its p-bromo analogue) in various buffers; functional amount measured by inhibition of bovine liver AP
- reported.conditions: ampd buffer, pH 9.8
measurement.kind: remaining at 72 h, 100 µM (%)
Answer in %, number only, no unit symbol.

## Task Need remaining at 72 h, 100 µM, item Brc1ccc([C@H]2CN3CCSC3=N2)cc1
## Result 74

====

- assay.explanation: Accelerated stability of levamisole (and its p-bromo analogue) in various buffers; functional amount measured by inhibition of bovine liver AP
- reported.conditions: diethanolamine buffer, pH 9.8
measurement.kind: remaining at 216 h, 100 µM (%)
Answer in %, number only, no unit symbol.

## Task Need remaining at 216 h, 100 µM, item Brc1ccc([C@H]2CN3CCSC3=N2)cc1
## Result 1.3

====

- assay.explanation: Accelerated stability of levamisole (and its p-bromo analogue) in various buffers; functional amount measured by inhibition of bovine liver AP
- reported.conditions: glycine buffer, pH 9.8
measurement.kind: remaining at 408 h, 100 µM
# output: number + unit

## Task Need remaining at 408 h, 100 µM, item Brc1ccc([C@H]2CN3CCSC3=N2)cc1 [p-bromolevamisole]
## Result 0%

====

- assay.explanation: Accelerated stability of levamisole (and its p-bromo analogue) in various buffers; functional amount measured by inhibition of bovine liver AP
- reported.conditions: ampd buffer, pH 9.8
measurement.kind: remaining at 216 h, 100 µM (%)
Answer in %, number only, no unit symbol.

## Task Need remaining at 216 h, 100 µM, item Brc1ccc([C@H]2CN3CCSC3=N2)cc1 [p-bromolevamisole]
## Result 37.3

====

- assay.explanation: Accelerated stability of levamisole (and its p-bromo analogue) in various buffers; functional amount measured by inhibition of bovine liver AP
- reported.conditions: diethanolamine buffer, pH 9.8
measurement.kind: remaining at 216 h, 1000 µM
# output: number + unit

## Task Need remaining at 216 h, 1000 µM, item c1ccc([C@H]2CN3CCSC3=N2)cc1 [levamisole]
## Result 9.12%

====

- assay.explanation: Accelerated stability of levamisole (and its p-bromo analogue) in various buffers; functional amount measured by inhibition of bovine liver AP
- reported.conditions: diethanolamine buffer, pH 9.8
measurement.kind: remaining at 72 h, 100 µM (%)
Answer in %, number only, no unit symbol.

## Task Need remaining at 72 h, 100 µM, item Brc1ccc([C@H]2CN3CCSC3=N2)cc1
## Result 33.6

====

- assay.explanation: Accelerated stability of levamisole (and its p-bromo analogue) in various buffers; functional amount measured by inhibition of bovine liver AP
- reported.conditions: ampd buffer, pH 9.8
measurement.kind: remaining at 72 h, 1000 µM (%)
Answer in %, number only, no unit symbol.

## Task Need remaining at 72 h, 1000 µM, item c1ccc([C@H]2CN3CCSC3=N2)cc1
## Result 110

====

- assay.explanation: Accelerated stability of levamisole (and its p-bromo analogue) in various buffers; functional amount measured by inhibition of bovine liver AP
- reported.conditions: glycine buffer, pH 9.8
- Experimental: Various buffers were prepared at 100 mM concentrations, containing 1 mM magnesium chloride, and adjusted to pH 9.8. […] (accelerated decomposition study). […] Bovine liver AP was added and the reaction kinetics were followed at 405 nm.
measurement.kind: remaining at 72 h, 1000 µM
# output: number + unit

## Task Need remaining at 72 h, 1000 µM, item c1ccc([C@H]2CN3CCSC3=N2)cc1 [levamisole]
## Result 0.08%

====

- assay.explanation: Accelerated stability of levamisole (and its p-bromo analogue) in various buffers; functional amount measured by inhibition of bovine liver AP
- reported.conditions: glycine buffer, pH 9.8
measurement.kind: remaining at 408 h, 1000 µM (%)
Answer in %, number only, no unit symbol.

## Task Need remaining at 408 h, 1000 µM, item c1ccc([C@H]2CN3CCSC3=N2)cc1 [levamisole]
## Result 0
